# experiment_description: Drug repurposing screens with cells derived from glioblastoma tumor samples (AID 1345199); also: % is scaled to controls: 0 for no effect and ±100 for the full control effect; nearly all actives have a fitted effect of over 40% in size
# assay_setup: GBM patient neurospheres viability, ATP luminescence, 48 h; at 45.9 µM (top of the series); tumour line D
Inconclusive results are not listed.
value_type: activity, negative = cell killing (%)
Give the value in % but do not write % after it.

Ask: Query (molecule): `CC1=C(/C=C/C(C)=C/C=C/C(C)=C/C(=O)O)C(C)(C)CCC1` ; field requested: activity, negative = cell killing
Result: -18.7

Ask: Query (molecule): `COc1ccccc1O` ; field requested: activity, negative = cell killing
Result: 4.42

Ask: Query (molecule): `CCCCCCCCCCCCOS(=O)(=O)O` ; field requested: activity, negative = cell killing
Result: 0.019

Ask: Query (molecule): `NC(=O)NC(=O)Cc1ccccc1` ; field requested: activity, negative = cell killing
Result: 3.38

Ask: Query (molecule): `CC[C@@]1(c2ccccc2)NC(=O)N(C)C1=O` ; field requested: activity, negative = cell killing
Result: -9.17

Ask: Query (molecule): `Cc1c(Cl)cccc1Nc1ccccc1C(=O)O` ; field requested: activity, negative = cell killing
Result: -17

Ask: Query (molecule): `CCN(CC)CCNC(=O)c1cc(Cl)c(N)cc1OC` ; field requested: activity, negative = cell killing
Result: -19.3

* * *

# experiment_description: qHTS assay for measurement of the activity of small molecule inhibitors on Zika virus induced Caspase-3 activity in human astrocytoma cells (AID 1224859);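 also: plate controls were ZIKV-infected untreated cells for no effect and uninfected cells for full effect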
# assay_setup: SNB-19 ZIKV-induced caspase-3/7, luminescence, 6 h; series mostly up to 45.7 µM
Active and inactive are the calls of the source. Calls come from the whole dose curve; as a rule, active = well fitted inhibition curve with a large enough effect; inconclusive = small, poorly fitted or top-dose-only effect; inactive = no such curve, though single readings can be large or run the other way.
value_type: activity change, negative = inhibition

Reference set (5 entries):
- CC1(C)[C@@H]2CC[C@@]1(C)C(=O)C2: inactive
- CC(CN1c2ccccc2Sc2ccccc21)N(C)C (centres undefined): inactive
- COc1ccc2cc1Oc1cc3c(cc1OC)CC[N+](C)(C)[C@H]3Cc1ccc(cc1)Oc1c(OC)c(OC)cc3c1[C@@H](C2)[N+](C)(C)CC3: inactive
- CN1CCN(C2Cc3ccccc3Sc3ccc(Cl)cc32)CC1 (centres undefined): inactive
- CN1CCOC(c2ccccc2)c2ccccc2C1 (centres undefined): inactive

Ask: Query (compound): `CCN(CC)CCNC(=O)c1c(C)[nH]c(/C=C2\C(=O)Nc3ccc(F)cc32)c1C` ; field requested: activity change, negative = inhibition
Result: inactive

Ask: Query (compound): `COc1ccc2c(c1)C(=O)N(CCc1ccc(S(=O)(=O)NC(=O)NC3CCCCC3)cc1)C(=O)C2(C)C` ; field requested: activity change, negative = inhibition
Result: inactive

Ask: Query (compound): CNCC(O)c1ccc(O)c(O)c1 (centres undefined) ; field requested: activity change, negative = inhibition
Result: inactive

Ask: Query (compound): `CCCCc1ncc(/C=C(\Cc2cccs2)C(=O)O)n1Cc1ccc(C(=O)O)cc1` ; field requested: activity change, negative = inhibition
Result: inactive

Ask: Query (compound): `C=Cc1c(C)c2cc3[nH]c(cc4nc(cc5nc(cc1[nH]2)C(C)=C5CCC(=O)O)C(CCC(=O)O)=C4C)c(C)c3C=C` ; field requested: activity change, negative = inhibition
Result: inactive

Ask: Query (compound): `CCCOC(=O)c1ccccc1` ; field requested: activity change, negative = inhibition
Result: inactive

Ask: Query (compound): `CC/C=C(\C(=O)N[C@@H]1C(=O)N2C(C(=O)OCOC(=O)C(C)(C)C)=C(COC(N)=O)CS[C@H]12)c1csc(N)n1` ; field requested: activity change, negative = inhibition
Result: inactive

Ask: Query (compound): `COc1ccc(Cl)cc1C(=O)NCCc1ccc(S(=O)(=O)NC(=O)NC2CCCCC2)cc1` ; field requested: activity change, negative = inhibition
Result: inactive

Ask: Query (compound): `C[C@](N)(Cc1ccc(O)cc1)C(=O)O` ; field requested: activity change, negative = inhibition
Result: inactive

Ask: Query (compound): `C#CCN(C)Cc1ccccc1` ; field requested: activity change, negative = inhibition
Result: inactive

Ask: Query (compound): `CN(C)CCCN1c2ccccc2Sc2ccc(Cl)cc21` ; field requested: activity change, negative = inhibition
Result: inactive

Ask: Query (compound): `COc1cc2[nH]c(=O)[nH]c(=O)c2cc1OC` ; field requested: activity change, negative = inhibition
Result: inactive

Ask: Query (compound): `O=C1N=C(O)CN1/N=C/c1ccc(-c2ccc([N+](=O)[O-])cc2)o1` ; field requested: activity change, negative = inhibition
Result: inactive

Ask: Query (compound): CC1=C(CC(=O)O)c2cc(F)ccc2/C1=C\c1ccc(S(C)=O)cc1 (centres undefined) ; field requested: activity change, negative = inhibition
Result: inactive

Ask: Query (compound): `Cc1ccc(C(C)C)cc2c(C)ccc1-2` ; field requested: activity change, negative = inhibition
Result: inactive

Ask: Query (compound): CC(CN(C)C)CN1c2ccccc2CCc2ccccc21 (centres undefined) ; field requested: activity change, negative = inhibition
Result: inactive

Ask: Query (compound): `[O-][n+]1cccc(CO)c1` ; field requested: activity change, negative = inhibition
Result: inactive

Ask: Query (compound): CCCCCCCCCCCCCCCCCCOCC(O)CO (centres undefined) ; field requested: activity change, negative = inhibition
Result: inactive

Ask: Query (compound): `CC[N+](CC)(CC)CCOc1ccc(/C=C/c2ccccc2)cc1` ; field requested: activity change, negative = inhibition
Result: inactive

Ask: Query (compound): `COc1cc(C)c(Cc2cnc(N)nc2N)cc1OC` ; field requested: activity change, negative = inhibition
Result: inactive

* * *

# assayed_system: Phospholipid hydroperoxide glutathione peroxidase GPX4 (Homo sapiens) (UniProt P36969)
# Sequence (P36969 whole entry, looked up): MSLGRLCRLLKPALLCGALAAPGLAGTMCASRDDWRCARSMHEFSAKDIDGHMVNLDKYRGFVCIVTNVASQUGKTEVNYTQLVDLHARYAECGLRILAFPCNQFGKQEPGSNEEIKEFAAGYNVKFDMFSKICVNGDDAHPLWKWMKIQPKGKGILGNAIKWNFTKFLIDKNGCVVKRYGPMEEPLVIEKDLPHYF
# experiment_description: Primary qHTS Assay for Inhibitors of Recombinant Selenoprotein Glutathione Peroxidase 4 (GPX4) (AID 1845192); also: nearly all actives have a fitted effect of over 65% in size
# assay_setup: recombinant GPX4, GR-coupled NADPH fluorescence, 15 min; series mostly up to 50 µM
Results filed as inconclusive are left out. Active and inactive are the calls of the source. The call rests on the fitted dose curve; in most records, active means well fitted inhibition curve with a large enough effect; inconclusive means small, poorly fitted or top-dose-only effect; inactive means flat fitted curve, though single readings scatter.
value_type: outcome

Reference set (5 entries):
• CN(C)CCC=C1c2ccccc2CCc2ccccc21 = inactive
• c1ccc(CN(CC2=NCCN2)c2ccccc2)cc1 = inactive
• NC(=O)c1ncn([C@@H]2O[C@H](CO)[C@@H](O)[C@H]2O)n1 = inactive
• CC(C)(C)c1onc(OCP(=O)(O)O)c1CC(N)C(=O)O (configuration not stated) = inactive
• CC(=O)OCC(=O)[C@@]1(O)CC[C@H]2[C@@H]3CCC4=CC(=O)CC[C@]4(C)[C@H]3C(=O)C[C@@]21C = inactive

Let's switch to this molecule now.
Ask: Any idea what outcome came out for NC1[C@H]2CN(c3nc4c(cc3F)c(=O)c(C(=O)O)cn4-c3ccc(F)cc3F)C[C@@H]12 (some centres not stated) on Phospholipid hydroperoxide glutathione peroxidase GPX4 (Homo sapiens) (UniProt P36969)?
Result: inactive

* * *

# Test system: FAB9
# experiment_description: qHTS profiling for inhibitors of Plasmodium falciparum proliferation (AID 504749); also: nearly all actives have a fitted effect of over 60% in size
# assay_setup: P. falciparum in erythrocytes, SYBR Green DNA, 72 h; series mostly up to 28.7 µM
Records with an inconclusive call do not appear. Calls of active or inactive are those of the source. The call rests on the fitted dose curve; in most records, active means well fitted inhibition curve with a large enough effect; inconclusive means small, poorly fitted or top-dose-only effect; inactive means flat fitted curve, though single readings scatter.
Give your call using only these classes: active, inactive

Ask: # fetch the recorded call for `Cc1cc(N)c2ccccc2[n+]1CCCCCCCCCC[n+]1c(C)cc(N)c2ccccc21` here
Result: active

Ask: # fetch the recorded call for `CCCCCCCCCCCCCCCC(=O)NCCO` here
Result: inactive

Ask: # fetch the recorded call for CCCCN(CCCC)CC(O)c1cc(Cl)cc2c1-c1ccc(Cl)cc1/C2=C/c1ccc(Cl)cc1 (stereo not drawn) here
Result: active

Ask: # fetch the recorded call for `NC1CCN(c2cccc(Cl)n2)CC1` here
Result: inactive

Ask: # fetch the recorded call for `O=Cc1ccccc1C=O` here
Result: inactive

Ask: # fetch the recorded call for O=C(O)CC(O)C(=O)O (stereo not drawn) here
Result: inactive

Ask: # fetch the recorded call for `C[C@H](N)[C@H](O)c1cccc(O)c1` here
Result: inactive

Ask: # fetch the recorded call for CCCCC(CC)COC(=O)c1ccccc1O (stereo not drawn) here
Result: inactive

Ask: # fetch the recorded call for `CC(=O)Nc1ccc(/C=N/NC(N)=S)cc1` here
Result: inactive

Ask: # fetch the recorded call for `CC(C)(C)C(=O)NCCCC(=O)O` here
Result: inactive

Ask: # fetch the recorded call for CC(=O)NC(Cc1ccccc1)C(=O)O (stereo not drawn) here
Result: inactive

Ask: # fetch the recorded call for `NC(=O)NNc1ccccc1` here
Result: inactive

Ask: # fetch the recorded call for `CCC(=O)Nc1ccc(O)cc1` here
Result: inactive

* * *

# System: DFO2036
# experiment_description: qHTS profiling for inhibitors of Plasmodium falciparum proliferation (AID 504749); also: nearly all actives have a fitted effect of over 60% in size
# assay_setup: P. falciparum in erythrocytes, SYBR Green DNA, 72 h; series mostly up to 28.7 µM
Inconclusive results are not listed. Active and inactive are the calls of the source. Calls follow the shape of the dose curve; as a rule, active = well fitted inhibition curve with a large enough effect; inconclusive = small, poorly fitted or top-dose-only effect; inactive = flat fitted curve, though single readings scatter.
Give your call using only these classes: 1.0 = active, 0.0 = inactive

Ask: # fetch the recorded call for `Nc1ccc(S(=O)(=O)Nc2ccccc2)cc1` here
Result: 0.0

Ask: # fetch the recorded call for `O=C(O)c1ccccn1` here
Result: 0.0

Ask: # fetch the recorded call for `CN1CCC[C@@H]1Cc1c[nH]c2ccc(CCS(=O)(=O)c3ccccc3)cc12` here
Result: 0.0

Ask: # fetch the recorded call for `O=C(O)[C@@H]1CSCN1` here
Result: 0.0

Ask: # fetch the recorded call for `C[C@@H]1CN(c2c(F)c(F)c3c(=O)c(C(=O)O)cn(C4CC4)c3c2F)C[C@H](C)N1` here
Result: 0.0

Ask: # fetch the recorded call for `CCCCCCCCCCCCOS(=O)(=O)O` here
Result: 0.0

Ask: # fetch the recorded call for `C[C@H](N)[C@H](O)c1cccc(O)c1` here
Result: 0.0

Ask: # fetch the recorded call for `CCn1cc(C(=O)O)c(=O)c2cnc(N3CCNCC3)nc21` here
Result: 0.0

Ask: # fetch the recorded call for Oc1ccc(C(O)CNCCCCCCNCC(O)c2ccc(O)c(O)c2)cc1O (stereo not drawn) here
Result: 0.0

Ask: # fetch the recorded call for `CCCCOc1cc(C(=O)OCCN(CC)CC)ccc1N` here
Result: 0.0

Ask: # fetch the recorded call for `COc1ccc(Cl)cc1C(=O)NCCc1ccc(S(=O)(=O)NC(=O)NC2CCCCC2)cc1` here
Result: 0.0

Ask: # fetch the recorded call for `CNC(=O)Oc1ccc2c(c1)[C@]1(C)CCN(C)[C@@H]1N2C` here
Result: 1.0

Ask: # fetch the recorded call for `CCOc1ccc2ccccc2c1C(=O)N[C@@H]1C(=O)N2[C@@H]1SC(C)(C)[C@@H]2C(=O)O` here
Result: 0.0

Ask: # fetch the recorded call for `Cc1ccc(C(C)C)cc2c(C)ccc1-2` here
Result: 0.0

Ask: # fetch the recorded call for CCCCCCCCCCCCCCCCCCOCC(O)CO (stereo not drawn) here
Result: 0.0

Ask: # fetch the recorded call for `CNCCCC1c2ccccc2C=Cc2ccccc21` here
Result: 0.0

Ask: # fetch the recorded call for NC(CSCC(=O)O)C(=O)O (stereo not drawn) here
Result: 0.0

Ask: # fetch the recorded call for `COC(=O)C1=C(C)NC(C)=C(C(=O)OC)C1c1ccccc1[N+](=O)[O-]` here
Result: 0.0
